Value source: patent US20070166547A1

Collected MA, %, After 30 minutes values appear next to each entry.
- Test system: aggregation of thrombocytes
- assay-details: ADP-induced aggregation of thrombocytes after intravenous administration (in vivo)
- Set-up: species or system rabbit
- condition-info: dose 15.0 mg/kg intravenously
# output: bare number, implied unit %

Task: Item `Nc1ccnc2c(=O)n([C@@H]3O[C@H](CO)[C@@H](O)[C@H]3O)[nH]c(=O)c12` has what recorded MA, %, After 30 minutes?
Result: 42.2

---
Task: Item `Nc1cccc2c(=O)[nH][nH]c(=O)c12.[Na]` has what recorded MA, %, After 30 minutes?
Result: 41.8

Task: Item `Nc1cnc2c(=O)n([C@@H]3O[C@H](CO)[C@@H](O)[C@H]3O)[nH]c(=O)c2n1.[Na]` has what recorded MA, %, After 30 minutes?
Result: 43.3

Task: Item `O=c1[nH][nH]c(=O)c2c(Br)ncnc12.[K]` has what recorded MA, %, After 30 minutes?
Result: 41.9

----------
- Test system: plasma hemostasis
- assay-details: Autocoagulation test (coagulating activity A) after intravenous administration
- Assay type: in vivo, rabbit
- condition-info: dose 60.0 mg/kg intravenously
value-type: A, % after 30 minutes (coagulating activity) (%)
# output: bare number, implied unit %

Use the examples below as a reference point.
Task: Item `Nc1cnc2c(=O)n([C@@H]3O[C@H](CO)[C@@H](O)[C@H]3O)[nH]c(=O)c2n1.[Na]` has what recorded A, % after 30 minutes (coagulating activity)?
Result: 62.1

Task: Item `Nc1ccnc2c(=O)n([C@@H]3O[C@H](CO)[C@@H](O)[C@H]3O)[nH]c(=O)c12` has what recorded A, % after 30 minutes (coagulating activity)?
Result: 60.8

Task: Item `Nc1cccc2c(=O)[nH][nH]c(=O)c12.[Na]` has what recorded A, % after 30 minutes (coagulating activity)?
Result: 63.2

# ---- query molecule ----
Task: Item `O=c1[nH][nH]c(=O)c2c(Br)ncnc12.[K]` has what recorded A, % after 30 minutes (coagulating activity)?
Result: 63.0

----------
- Test system: plasma hemostasis
- assay-details: Partial activated thromboplastin time (PATT) after intravenous administration
- Assay type: in vivo, rabbit
- condition-info: dose 30.0 mg/kg intravenously
Collected T, s after 30 minutes (PATT) values appear next to each entry.
# output: bare number, implied unit s

Task: Lab request: please report T, s after 30 minutes (PATT) under test system plasma hemostasis for O=c1[nH][nH]c(=O)c2c(Br)ncnc12.[K] [Compound 37]
Result: 33.3

Task: Lab request: please report T, s after 30 minutes (PATT) under test system plasma hemostasis for Nc1cnc2c(=O)n([C@@H]3O[C@H](CO)[C@@H](O)[C@H]3O)[nH]c(=O)c2n1.[Na] [Compound 21]
Result: 32.0

Task: Lab request: please report T, s after 30 minutes (PATT) under test system plasma hemostasis for Nc1ccnc2c(=O)n([C@@H]3O[C@H](CO)[C@@H](O)[C@H]3O)[nH]c(=O)c12 [Compound 2]
Result: 32.0

# ---- query compound ----
Task: Lab request: please report T, s after 30 minutes (PATT) under test system plasma hemostasis for Nc1cccc2c(=O)[nH][nH]c(=O)c12.[Na] [Compound 15]
Result: 32.1

----------
- Tested on: plasma hemostasis
- assay-details: Partial activated thromboplastin time (PATT) after intravenous administration
- Format: in vivo, rabbit
- condition-info: dose 30.0 mg/kg intravenously
Collected T, s after 60 minutes (PATT) values appear next to each entry.
# output: bare number, implied unit s

Use the examples below as a reference point.
Task: Item O=c1[nH][nH]c(=O)c2c(Br)ncnc12.[K] [Compound 37] has what recorded T, s after 60 minutes (PATT)?
Result: 33.3

Task: Item Nc1cnc2c(=O)n([C@@H]3O[C@H](CO)[C@@H](O)[C@H]3O)[nH]c(=O)c2n1.[Na] [Compound 21] has what recorded T, s after 60 minutes (PATT)?
Result: 32.2

Task: Item Nc1cccc2c(=O)[nH][nH]c(=O)c12.[Na] [Compound 15] has what recorded T, s after 60 minutes (PATT)?
Result: 32.0

# ---- query compound ----
Task: Item Nc1ccnc2c(=O)n([C@@H]3O[C@H](CO)[C@@H](O)[C@H]3O)[nH]c(=O)c12 [Compound 2] has what recorded T, s after 60 minutes (PATT)?
Result: 32.2

----------
- Tested on: indicator enzymes in blood plasma
- assay-details: Morphine abstinence model: indicator enzymes AST, ALT, γ-GTP in blood plasma
- Format: in vivo, rats Wistar
- condition-info: compound alone 20.0 mg/kg intramuscularly
value-type: ALT, Ci, mE/l, Control + compound (mE/l)
# output: bare number, implied unit mE/l

Use the examples below as a reference point.
Task: Item `O=c1[nH][nH]c(=O)c2ncccc12.[Li]` has what recorded ALT, Ci, mE/l, Control + compound?
Result: 114.5

Task: Item `O=c1[nH][nH]c(=O)c2c(Br)ncnc12.[K]` has what recorded ALT, Ci, mE/l, Control + compound?
Result: 113.84

Task: Item `O=c1[nH][nH]c(=O)c2nccnc12.[Li]` has what recorded ALT, Ci, mE/l, Control + compound?
Result: 115.27

---
Task: Item `Nc1cccc2c(=O)[nH][nH]c(=O)c12.[Na]` has what recorded ALT, Ci, mE/l, Control + compound?
Result: 113.48

----------
- Tested on: plasma hemostasis
- assay-details: Prothrombin time after intravenous administration
- Format: in vivo, rabbit
- condition-info: dose 60.0 mg/kg intravenously
value-type: T, s after 60 minutes (prothrombin time) (s)
# output: bare number, implied unit s

Use the examples below as a reference point.
Task: Item `O=c1[nH][nH]c(=O)c2c(Br)ncnc12.[K]` has what recorded T, s after 60 minutes (prothrombin time)?
Result: 12.1

Task: Item `Nc1ccnc2c(=O)n([C@@H]3O[C@H](CO)[C@@H](O)[C@H]3O)[nH]c(=O)c12` has what recorded T, s after 60 minutes (prothrombin time)?
Result: 12.1

Task: Item `Nc1cccc2c(=O)[nH][nH]c(=O)c12.[Na]` has what recorded T, s after 60 minutes (prothrombin time)?
Result: 12.0

---
Task: Item `Nc1cnc2c(=O)n([C@@H]3O[C@H](CO)[C@@H](O)[C@H]3O)[nH]c(=O)c2n1.[Na]` has what recorded T, s after 60 minutes (prothrombin time)?
Result: 12.1

----------
- Test system: plasma hemostasis
- assay-details: Autocoagulation test (coagulating activity A) after intravenous administration
- Assay type: in vivo, rabbit
- condition-info: dose 60.0 mg/kg intravenously
Collected A, % after 120 minutes (coagulating activity) values appear next to each entry.
# output: bare number, implied unit %

Task: Lab request: please report A, % after 120 minutes (coagulating activity) under test system plasma hemostasis for Nc1cccc2c(=O)[nH][nH]c(=O)c12.[Na] [Compound 15]
Result: 66.5

---
Task: Lab request: please report A, % after 120 minutes (coagulating activity) under test system plasma hemostasis for Nc1ccnc2c(=O)n([C@@H]3O[C@H](CO)[C@@H](O)[C@H]3O)[nH]c(=O)c12 [Compound 2]
Result: 65.7

Task: Lab request: please report A, % after 120 minutes (coagulating activity) under test system plasma hemostasis for Nc1cnc2c(=O)n([C@@H]3O[C@H](CO)[C@@H](O)[C@H]3O)[nH]c(=O)c2n1.[Na] [Compound 21]
Result: 66.2

Task: Lab request: please report A, % after 120 minutes (coagulating activity) under test system plasma hemostasis for O=c1[nH][nH]c(=O)c2c(Br)ncnc12.[K] [Compound 37]
Result: 66.3

----------
- Tested on: aggregation of thrombocytes
- assay-details: ADP-induced aggregation of thrombocytes after intravenous administration (in vivo)
- Parameters: species or system rabbit
- condition-info: dose 60.0 mg/kg intravenously
Collected MA, %, After 30 minutes values appear next to each entry.
# output: bare number, implied unit %

Task: Item `O=c1[nH][nH]c(=O)c2c(Br)ncnc12.[K]` has what recorded MA, %, After 30 minutes?
Result: 42.4

Task: Item `Nc1ccnc2c(=O)n([C@@H]3O[C@H](CO)[C@@H](O)[C@H]3O)[nH]c(=O)c12` has what recorded MA, %, After 30 minutes?
Result: 43.6

Task: Item `Nc1cccc2c(=O)[nH][nH]c(=O)c12.[Na]` has what recorded MA, %, After 30 minutes?
Result: 41.3

# ---- query compound ----
Task: Item `Nc1cnc2c(=O)n([C@@H]3O[C@H](CO)[C@@H](O)[C@H]3O)[nH]c(=O)c2n1.[Na]` has what recorded MA, %, After 30 minutes?
Result: 43.2

----------
- Test system: plasma hemostasis
- assay-details: Partial activated thromboplastin time (PATT) after intravenous administration
- Type: in vivo, rabbit
- condition-info: dose 30.0 mg/kg intravenously
Collected T, s after 15 minutes (PATT) values appear next to each entry.

Use the examples below as a reference point.
Task: Item `Nc1cnc2c(=O)n([C@@H]3O[C@H](CO)[C@@H](O)[C@H]3O)[nH]c(=O)c2n1.[Na]` has what recorded T, s after 15 minutes (PATT)?
Result: 32.8 ± 0.4 s

Task: Item `Nc1cccc2c(=O)[nH][nH]c(=O)c12.[Na]` has what recorded T, s after 15 minutes (PATT)?
Result: 32.9 ± 0.8 s

Task: Item `O=c1[nH][nH]c(=O)c2c(Br)ncnc12.[K]` has what recorded T, s after 15 minutes (PATT)?
Result: 33.1 ± 0.1 s

---
Task: Item `Nc1ccnc2c(=O)n([C@@H]3O[C@H](CO)[C@@H](O)[C@H]3O)[nH]c(=O)c12` has what recorded T, s after 15 minutes (PATT)?
Result: 32.7 ± 0.5 s
